# target or system: Carnitine O-palmitoyltransferase 1, liver isoform (Homo sapiens)
# Sequence (P50416 whole entry, canonical isoform): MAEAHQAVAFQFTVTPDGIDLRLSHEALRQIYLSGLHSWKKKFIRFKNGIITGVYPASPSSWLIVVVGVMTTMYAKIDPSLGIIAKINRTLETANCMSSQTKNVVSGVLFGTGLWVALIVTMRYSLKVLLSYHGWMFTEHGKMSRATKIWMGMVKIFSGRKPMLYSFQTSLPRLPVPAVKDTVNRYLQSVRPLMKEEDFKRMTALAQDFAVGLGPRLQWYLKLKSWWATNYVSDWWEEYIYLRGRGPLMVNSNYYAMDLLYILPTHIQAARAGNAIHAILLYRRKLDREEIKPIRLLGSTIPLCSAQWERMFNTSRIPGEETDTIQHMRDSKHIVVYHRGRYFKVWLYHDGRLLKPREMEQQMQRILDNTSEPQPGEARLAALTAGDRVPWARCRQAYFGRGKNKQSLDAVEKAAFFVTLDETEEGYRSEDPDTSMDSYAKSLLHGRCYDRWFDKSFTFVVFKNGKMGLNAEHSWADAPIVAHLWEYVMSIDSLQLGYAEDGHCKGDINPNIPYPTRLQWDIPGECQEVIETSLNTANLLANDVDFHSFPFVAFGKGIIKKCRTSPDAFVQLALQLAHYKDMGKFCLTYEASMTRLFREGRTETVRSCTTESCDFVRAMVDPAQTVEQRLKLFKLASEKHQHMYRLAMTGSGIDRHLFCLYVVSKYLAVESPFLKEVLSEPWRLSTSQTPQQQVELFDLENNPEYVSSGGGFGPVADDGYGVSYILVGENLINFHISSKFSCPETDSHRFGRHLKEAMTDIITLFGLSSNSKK
# assay: Increase in CPT1 activity in human MCF7 cells assessed as increase in radiolabeled palmitoylcarnitine
# Assay type: cell-based
experimental readout: EC50
Record the result as number plus unit.

Ask: Which EC50 is reported for this compound? C=CCC1(CC=C)C(=O)S[C@](C)(CCCCCCCC)C1=O
Reply: 3 µM

* * *

# target or system: Carnitine O-palmitoyltransferase 1, liver isoform (Homo sapiens)
# assay: Inhibition of CPT1 in liver mitochondria
experimental readout: IC50

Ask: Which IC50 is reported for this molecule? COc1ccc(CN2CCN(CCCSc3cc(C(C)(C)C)c(O)c(C(C)(C)C)c3)CC2)c(OC)c1OC
Reply: 51 µM

* * *

# target or system: Carnitine O-palmitoyltransferase 2, mitochondrial (Rattus norvegicus, UniProt P18886)
# Sequence (P18886 whole entry): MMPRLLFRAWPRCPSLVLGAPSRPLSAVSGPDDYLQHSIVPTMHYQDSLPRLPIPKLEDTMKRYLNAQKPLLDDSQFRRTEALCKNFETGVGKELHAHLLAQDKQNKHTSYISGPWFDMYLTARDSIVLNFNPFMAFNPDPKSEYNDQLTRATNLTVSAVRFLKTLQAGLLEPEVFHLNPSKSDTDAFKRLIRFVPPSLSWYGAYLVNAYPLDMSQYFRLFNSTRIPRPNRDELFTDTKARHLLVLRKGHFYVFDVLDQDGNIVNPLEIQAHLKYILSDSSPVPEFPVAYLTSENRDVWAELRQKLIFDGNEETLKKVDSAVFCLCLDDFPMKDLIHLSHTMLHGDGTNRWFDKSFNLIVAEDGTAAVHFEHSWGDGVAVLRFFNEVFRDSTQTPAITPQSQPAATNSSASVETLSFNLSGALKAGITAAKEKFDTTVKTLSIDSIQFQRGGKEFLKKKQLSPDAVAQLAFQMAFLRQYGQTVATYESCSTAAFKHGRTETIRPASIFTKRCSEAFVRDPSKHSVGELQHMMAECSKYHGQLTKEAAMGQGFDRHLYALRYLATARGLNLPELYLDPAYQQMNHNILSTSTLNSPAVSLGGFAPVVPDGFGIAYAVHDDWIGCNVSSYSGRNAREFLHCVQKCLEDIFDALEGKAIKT
# assay: Inhibition of rat CPT2
Kindly supply the reported IC50 values for the records listed here.

Ask: Query for Carnitine O-palmitoyltransferase 2, mitochondrial (Rattus norvegicus, UniProt P18886): what IC50 does the record show for O=C(NCc1cccs1)c1nn(Cc2cccc(C(F)(F)F)c2)c2ccccc12 ?
Reply: > 100 µM

Ask: Follow-up item: COc1ccc(Cl)cc1S(=O)(=O)N1CC(C(=O)O)Oc2ccc(C(=O)Nc3cccc(F)c3)cc21 (stereo not given)
Reply: > 100 µM

Ask: Follow-up item: O=C(O)c1ccc(NC(=O)c2cccc(NS(=O)(=O)c3ccc(Cl)c(Cl)c3)c2)cc1
Reply: 28.5 µM

Ask: Follow-up item: O=C(O)C(=O)c1ccc(OCCOc2ccc3ccccc3c2)s1
Reply: > 100 µM

Ask: Follow-up item: COc1ccc(-c2noc([C@H]3CCCCN3C(=O)COc3ccccc3)n2)cc1
Reply: > 100 µM

* * *

# assay: Inhibition of carnitine palmitoyltransferase in 18 hr fasted rat hepatocytes
# Format: cell-based
# experimental conditions: hepatocyte
Kindly supply the reported pIC50 values for the records listed here.
Hey, just a heads up that pIC50 is the negative log base 10 of the concentration in molar.

Ask: Which pIC50 is reported for this compound? CCCCCCCCCCCCCCCC(=O)N[C@H](CC(=O)[O-])C[N+](C)(C)C [PALMITOYLAMINOCARNITINE]
Reply: 5.92

Ask: Follow-up item: CCCCCCCCCCCCCCOP(=O)([O-])O[C@H](CC(=O)O)C[N+](C)(C)C
Reply: 5.52
